Target: HDAC6 (Homo sapiens)
Sequence (Q9UBN7 1-1215): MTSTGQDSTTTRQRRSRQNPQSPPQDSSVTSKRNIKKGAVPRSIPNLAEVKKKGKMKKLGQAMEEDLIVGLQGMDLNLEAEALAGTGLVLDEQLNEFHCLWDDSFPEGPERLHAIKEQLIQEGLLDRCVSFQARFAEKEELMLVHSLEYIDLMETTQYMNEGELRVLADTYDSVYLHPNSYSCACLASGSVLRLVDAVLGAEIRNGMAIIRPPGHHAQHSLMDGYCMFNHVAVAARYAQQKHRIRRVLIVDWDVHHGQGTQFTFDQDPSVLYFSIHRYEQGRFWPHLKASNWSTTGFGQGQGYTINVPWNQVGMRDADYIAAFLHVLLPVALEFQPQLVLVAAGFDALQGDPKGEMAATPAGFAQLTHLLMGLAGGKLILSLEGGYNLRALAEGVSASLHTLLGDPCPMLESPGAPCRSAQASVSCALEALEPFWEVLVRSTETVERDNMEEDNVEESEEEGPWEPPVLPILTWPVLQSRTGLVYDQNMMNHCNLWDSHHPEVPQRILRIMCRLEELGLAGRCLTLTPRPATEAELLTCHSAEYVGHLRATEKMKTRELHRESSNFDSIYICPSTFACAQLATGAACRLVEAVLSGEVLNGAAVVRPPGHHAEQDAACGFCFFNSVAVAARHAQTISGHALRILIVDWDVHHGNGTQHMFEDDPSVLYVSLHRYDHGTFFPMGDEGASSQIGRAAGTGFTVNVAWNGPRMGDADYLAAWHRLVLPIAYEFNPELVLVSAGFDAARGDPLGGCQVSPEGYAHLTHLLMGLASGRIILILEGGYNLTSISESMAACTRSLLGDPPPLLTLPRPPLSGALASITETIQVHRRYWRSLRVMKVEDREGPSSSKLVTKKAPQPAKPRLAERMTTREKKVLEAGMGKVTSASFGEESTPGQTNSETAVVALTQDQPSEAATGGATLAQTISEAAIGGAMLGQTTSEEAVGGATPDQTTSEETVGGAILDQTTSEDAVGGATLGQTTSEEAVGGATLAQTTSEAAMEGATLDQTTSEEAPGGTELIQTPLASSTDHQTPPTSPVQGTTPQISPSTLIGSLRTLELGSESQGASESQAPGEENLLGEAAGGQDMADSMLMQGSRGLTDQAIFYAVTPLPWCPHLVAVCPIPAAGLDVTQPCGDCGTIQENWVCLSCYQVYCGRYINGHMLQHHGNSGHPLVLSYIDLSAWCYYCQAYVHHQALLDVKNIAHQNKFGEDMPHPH
Test: Human HDAC enzyme inhibitor Fluor-de-Lys assay, HDAC6
Type: biochemical
Flag rule - IC50 less than 3 µM flags YES; the remaining entries get NO.

1. CCC(=O)CCCCC[C@H](NC(=O)[C@H]1CC12CCN(CC)CC2)c1ncc(-c2ccc(C)cc2OC)[nH]1 :: YES
2. CCC(=O)CCCCC[C@H](NC(=O)[C@H]1CC12CCN(C)CC2)c1ncc(-c2cc3ccccc3nc2OC)o1 [Compound 77] :: YES
3. CCC(=O)CCCCC[C@H](NC(=O)[C@H]1CC12CCN(CC1CC1)CC2)c1ncc(-c2ccc3nc(C4CC4)ccc3c2)[nH]1 :: NO
4. CCC(=O)CCCCC[C@H](NC(=O)[C@H]1CC12CCN(CC)CC2)c1ncc(-c2cc3cccnc3cc2OC)[nH]1 :: YES
5. CCC(=O)CCCCC[C@H](NC(=O)[C@H]1CC12CCN(CC)CC2)c1ncc(-c2cc3nn(C)cc3cc2OC)o1 :: YES
6. CCC(=O)CCCCC[C@H](NC(=O)[C@H]1CC12CCN(C)CC2)c1ncc(-c2ccc3ncoc3c2)[nH]1 :: NO
7. CCN1CCC2(CC1)C[C@@H]2C(=O)N[C@@H](CCCCCC(=O)CC1CC1)c1ncc(-c2cc3ccc(C)nc3cc2OC)o1 :: NO
8. CCN1CCC2(CC1)C[C@@H]2C(=O)N[C@@H](CCCCCC(=O)CC1CC1)c1ncc(-c2cccnc2OC)[nH]1 :: NO
9. CCC(=O)CCCCC[C@H](NC(=O)C1CCC2(CC1)CN(C)C2)c1ncc(-c2ccc3nn(C)cc3c2)[nH]1 :: NO
10. CCC(=O)CCCCC[C@H](N)c1ncc(-c2ccc3nc(C)ccc3c2)[nH]1 :: NO
11. CCC(=O)CCCCC[C@H](NC(=O)[C@H]1CC12CCN(C)CC2)c1ncc(-c2ccc3nc(C4CC4)sc3c2)[nH]1 :: NO

---

Target: HDAC6 (Homo sapiens, UniProt Q9UBN7)
Assay: Human HDAC enzyme inhibitor Fluor-de-Lys assay, HDAC6
Assay type: biochemical
# log10 IC50 values compiled below
Recorded endpoint: log10 IC50 (log10 of the value in µM)

1. CCN1CCC2(CC1)C[C@@H]2C(=O)N[C@@H](CCCCCC(=O)CC1CC1)c1ncc(-c2cc3ccc(C)nc3cc2OC)[nH]1 :: 1.08
2. CCC(=O)CCCCC[C@H](NC(=O)[C@H]1CC12CCN(CC)CC2)c1ncc(-c2cc3ccccc3nc2OC)o1 :: -0.86
3. CCC(=O)CCCCC[C@H](NC(=O)[C@H]1CC12CCN(C)CC2)c1ncc(-c2cc3ccc(Cl)cc3nc2OC)[nH]1 :: -0.47
4. CCC(=O)CCCCC[C@H](NC(=O)[C@H]1CC12CCN(C)CC2)c1ncc(-c2cc3ncccc3nc2OC)[nH]1 :: 0.56
5. CCC(=O)CCCCC[C@H](NC(=O)[C@H]1CC12CCN(C)CC2)c1[nH]c(-c2ccc(F)cc2)nc1Cl :: 1.44
6. CCC(=O)CCCCC[C@H](NC(=O)C1(CC(C)C)CC2(CN(C)C2)C1)c1ncc(-c2ccc3nc(C)ccc3c2)[nH]1 :: 0.93
7. CCC(=O)CCCCC[C@H](NC(=O)[C@H]1CC12CCN(C)CC2)c1ncc(-c2ccc3nc(C(F)(F)F)ccc3c2)o1 :: 1.53
8. CCC(=O)CCCCC[C@H](NC(=O)[C@H]1CC12CCN(C)CC2)c1ncc(-c2ccc3nc(C)ccc3c2)o1 :: 0.23
9. CCC(=O)CCCCC[C@H](NC(=O)[C@H]1CC12CCN(C)CC2)c1ncc(-c2cc(OC)c3ccccc3n2)[nH]1 :: -0.03
10. CCC(=O)CCCCC[C@H](NC(=O)C1=NOC2(CCN(C(C)C)CC2)C1)c1ncc(-c2cc3ccccc3nc2OC)[nH]1 :: 0.16
11. CCC(=O)CCCCC[C@H](NC(=O)C1=NOC2(CCN(C)CC2)C1)c1ncc(-c2cc3ccc(C)nc3cc2OC)o1 :: -0.12

---

Target: Recombinant human HDAC2 (Homo sapiens, UniProt Q92769)
Construct: Full length human HDAC2-FLAG was expressed in baculovirus infected Sf9 cells; FLAG (C); made in house; host or cells: Sf9 (baculovirus)
Sequence (Q92769 whole entry): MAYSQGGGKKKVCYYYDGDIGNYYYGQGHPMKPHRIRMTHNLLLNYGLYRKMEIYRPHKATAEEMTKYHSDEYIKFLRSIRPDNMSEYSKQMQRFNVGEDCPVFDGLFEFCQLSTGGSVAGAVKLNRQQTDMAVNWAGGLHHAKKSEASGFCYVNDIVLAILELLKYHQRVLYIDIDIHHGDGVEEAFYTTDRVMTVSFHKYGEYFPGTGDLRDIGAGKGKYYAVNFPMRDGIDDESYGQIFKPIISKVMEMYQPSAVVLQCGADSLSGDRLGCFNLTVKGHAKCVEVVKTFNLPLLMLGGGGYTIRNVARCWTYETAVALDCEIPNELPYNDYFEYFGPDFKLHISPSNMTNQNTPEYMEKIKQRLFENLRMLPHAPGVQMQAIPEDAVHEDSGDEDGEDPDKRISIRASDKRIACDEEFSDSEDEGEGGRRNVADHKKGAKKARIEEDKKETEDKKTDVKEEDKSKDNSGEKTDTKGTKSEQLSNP
Assay: Human HDAC enzyme inhibitor Fluor-de-Lys assay, HDAC2
Format: biochemical
Description: Human HDAC Enzyme Inhibitor Fluor-De-Lys Assay Recombinant human HDAC8 (BML-SE145-0100) and HDAC10 (BML-SE559-0050) enzymes, HDAC substrates BML-KI104 and BML-KI178, and HDAC developer solutions BML-KI105 and BML-KI176 were purchased from Enzo Life Sciences. […] The histone deacetylase activities of HDAC1, HDAC2, HDAC3, HDAC6, and HDAC8 were measured in modified FLUOR DE LYS assays in 384-well format. […] The released AMC is then detected by its fluorescence. […]
Recorded endpoint: log10(IC50) (log10 of the value in nM)

1) CCC(=O)CCCCC[C@H](NC(=O)[C@H]1CC12CCN(C)CC2)c1[nH]c(-c2ccc(F)cc2)nc1Cl [Compound 91] :: 1.15
2) CCC(=O)CCCCC[C@H](NC(=O)[C@H]1CC12CCN(CC)CC2)c1ncc(-c2ccc(-c3nccs3)cc2)o1 [Compound 93] :: 1.41
3) CCC(=O)CCCCC[C@H](NC(=O)C1CC12CCN(C)C(C)(C)C2)c1ncc(-c2ccc3nc(C)ccc3c2)[nH]1 (single isomer, unassigned) [Compound 131] :: 0.40
4) CCC(=O)CCCCC[C@H](NC(=O)[C@H]1CC12CCN(C)CC2)c1ncc(-c2cc3ccccc3nc2OC)o1 [Compound 125] :: 0.75
5) COc1cc2nc(C)ccc2cc1-c1cnc([C@H](CCCCCC(=O)CC2CCC2)NC(=O)[C@H]2CC23CCN(C)CC3)o1 [Compound 185] :: 1.58

---

Target: HDAC6 (Homo sapiens, UniProt Q9UBN7)
Experiment: Human HDAC enzyme inhibitor Fluor-de-Lys assay, HDAC6
Format: biochemical
Recorded endpoint: IC50 (µM)

1. CCC(=O)CCCCC[C@H](NC(=O)[C@H]1CC12CCN(CC)CC2)c1ncc(-c2cc3cccnc3cc2OC)o1 :: 0.083
2. CCC(=O)CCCCC[C@H](NC(=O)[C@H]1CC12CCN(CC)CC2)c1ncc(-c2ccc(-n3cccn3)cc2)o1 :: 1.25
3. C=CCN1CCC2(CC1)C[C@@H]2C(=O)N[C@@H](CCCCCC(=O)CC)c1ncc(-c2cccc3c2C2CCC3N2CC=C)[nH]1 (stereo partly shown) :: 2.12
4. CCC(=O)CCCCC[C@H](NC(=O)[C@H]1CC12CCN(C)CC2)c1ncc(-c2ccc3oc(=O)ccc3c2)[nH]1 :: 1.47

The origin of these recorded values is patent US12590099B2.
